Measured GI50 accompanies every entry in the list below.
Tested on: SW-620
Test: NCI tumour cell line growth inhibition, 48 h
Calls of active or inactive are those of the source. Rule as the data show it: active = GI50 up to about 1.1 µM and inactive = higher.

                                   compound      recorded_result
0  CC(=N/NC(=S)N1CCCCC1)/C(=N\NC(=S)N1CCCCC1)c1ccccc1   2.15 µM (inactive)
1  CCOC(=O)c1sc2c(c1O)c(=O)n(-c1ccccc1)c(=S)n2-c1ccccc1   99.3 µM (inactive)
2  Cc1ccc(C)c2c1NC(=O)/C2=N\Nc1ccccc1[N+](=O)[O-]  > 100 µM (inactive)

[Q] Entry under review: CC(=O)c1ccc2c(c1)CC1(C2)Cc2cc3c(cc2C1=O)CCC3 (stereo not given) . Reported GI50?
[A] 32.6 µM (inactive)

[Q] Entry under review: CN(C(=O)C12C3C4C1C1C2C3C41C(N)=O)C(C)(C)C (stereo not given) . Reported GI50?
[A] > 100 µM (inactive)

[Q] Entry under review: CC(C)(C)OC(=O)N1CCC2(CC1)C(=O)NCN2c1ccccc1 . Reported GI50?
[A] > 100 µM (inactive)

[Q] Entry under review: Oc1c2ccccc2c2c3c(cccc13)N=N2 . Reported GI50?
[A] 10.9 µM (inactive)

[Q] Entry under review: N#CNC(=N)Nc1ccc(Cl)cc1 . Reported GI50?
[A] > 100 µM (inactive)

[Q] Entry under review: Cc1ccc(C(=O)C(C)N)cc1 (stereo not given) . Reported GI50?
[A] > 100 µM (inactive)

[Q] Entry under review: Clc1ccc(/N=C/c2cc3cc(Br)ccc3nc2Cl)cc1 . Reported GI50?
[A] 14.2 µM (inactive)
